// reported Selectivity per item
Target: Adrenergic receptors; alpha-1 A & B (Homo sapiens) (UniProt P35348+P35368)
Assay: Selectivity over alpha-1a/alpha-1b
Format: protein assay

{"columns": ["compound", "Selectivity"],
 "data": [
  ["COc1ccccc1OCCNCC1COC(c2ccccc2)(c2ccccc2)O1.O=C(O)C(=O)O (centres undefined)", 2],
  ["O=C(O)C(=O)O.c1ccc(OCCNCC2COC(c3ccccc3)(c3ccccc3)O2)cc1 (centres undefined)", 2],
  ["C[N+](C)(CCOc1ccccc1)CC1COC(c2ccccc2)(c2ccccc2)O1.O=C([O-])C(=O)O (centres undefined)", 0.6],
  ["CN(CCOc1ccccc1)CC1COC(c2ccccc2)(c2ccccc2)O1.O=C(O)C(=O)O (centres undefined)", 0.3]
]}

----------
Listed here: items and their measured Selectivity.
Biological target: Alpha adrenergic receptor 1A and 1B (Rattus norvegicus) (UniProt P15823+P43140)
Sequence (P15823 whole entry, looked up): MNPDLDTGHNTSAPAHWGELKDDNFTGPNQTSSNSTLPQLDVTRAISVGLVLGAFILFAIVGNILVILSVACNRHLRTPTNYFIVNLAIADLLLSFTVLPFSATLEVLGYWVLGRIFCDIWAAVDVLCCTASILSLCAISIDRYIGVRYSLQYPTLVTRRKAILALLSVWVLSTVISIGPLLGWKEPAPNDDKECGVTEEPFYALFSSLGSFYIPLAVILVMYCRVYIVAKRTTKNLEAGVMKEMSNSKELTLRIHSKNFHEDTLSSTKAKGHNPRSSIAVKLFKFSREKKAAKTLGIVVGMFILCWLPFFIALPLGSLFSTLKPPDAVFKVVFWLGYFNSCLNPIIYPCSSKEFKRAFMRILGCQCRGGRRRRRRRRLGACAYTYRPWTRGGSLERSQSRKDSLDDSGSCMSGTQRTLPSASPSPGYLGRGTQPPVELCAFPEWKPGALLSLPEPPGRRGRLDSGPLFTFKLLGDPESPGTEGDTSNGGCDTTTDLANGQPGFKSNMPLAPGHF
Sequence (P43140 whole entry, looked up): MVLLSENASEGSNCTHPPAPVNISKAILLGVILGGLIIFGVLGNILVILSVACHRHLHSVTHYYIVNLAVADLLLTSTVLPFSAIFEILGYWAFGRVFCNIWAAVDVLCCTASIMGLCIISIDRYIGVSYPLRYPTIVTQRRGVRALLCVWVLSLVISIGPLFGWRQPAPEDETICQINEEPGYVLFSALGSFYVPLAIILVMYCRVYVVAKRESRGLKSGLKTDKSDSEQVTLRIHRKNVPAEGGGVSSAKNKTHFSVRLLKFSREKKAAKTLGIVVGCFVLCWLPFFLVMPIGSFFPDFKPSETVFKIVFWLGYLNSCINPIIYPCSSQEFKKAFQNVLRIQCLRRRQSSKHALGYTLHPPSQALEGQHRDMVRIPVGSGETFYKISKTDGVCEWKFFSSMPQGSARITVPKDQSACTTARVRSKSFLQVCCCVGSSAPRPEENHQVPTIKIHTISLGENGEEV
Experiment: Selectivity given as ratio of pKb value against alpha1A receptor to pKb value against alpha-1B receptor in rat
Format: functional

{"columns": ["compound", "qualifier symbol", "Selectivity"],
 "data": [
  ["CN(CCOc1ccccc1)CC1COC(c2ccccc2)(c2ccccc2)O1.O=C(O)C(=O)O (centres undefined)", "=", 0.6],
  ["C[N+](C)(CCOc1ccccc1)CC1COC(c2ccccc2)(c2ccccc2)O1.O=C([O-])C(=O)O (centres undefined)", "<", 0.3],
  ["O=C(O)C(=O)O.c1ccc(OCCNCC2CO[C@H](c3ccccc3)O2)cc1 (some centres undefined)", "=", 0.1],
  ["COc1cccc(OC)c1OCCNCC1COC(c2ccccc2)(c2ccccc2)O1.O=C(O)C(=O)O (centres undefined)", "=", 0.7],
  ["COc1cccc(OC)c1OCCNCC1CO[C@@H](c2cccc3ccccc23)O1.O=C(O)C(=O)O (some centres undefined)", "=", 0.2],
  ["COc1cccc(OC)c1OCCNCC1CO[C@@H](c2ccccc2)O1.O=C(O)C(=O)O (some centres undefined)", "=", 1],
  ["COc1cccc(OC)c1OCCNCC1CO[C@@H](C(c2ccccc2)c2ccccc2)O1.O=C(O)C(=O)O (some centres undefined)", "=", 21],
  ["COc1cccc(OC)c1OCCNCC1CO[C@H](c2ccccc2)O1.O=C(O)C(=O)O (some centres undefined)", "=", 8],
  ["O=C(O)C(=O)O.c1ccc(OCCNCC2CO[C@@H](c3ccccc3)O2)cc1 (some centres undefined)", "=", 0.4]
]}

----------
Consider the following compounds and their measured pKb readings.
Target: Alpha-1A adrenergic receptor (Rattus norvegicus)
Test: Inhibition of (-)-noradrenaline-induced contraction of rat prostatic vas deferens (alpha1A receptor)
Type: functional

{"columns": ["compound", "pKb"],
 "data": [
  ["COc1cccc(OC)c1OCCNCC1CO[C@@H](C(c2ccccc2)c2ccccc2)O1.O=C(O)C(=O)O (some centres undefined)", 6.77],
  ["COc1cccc(OC)c1OCCNCC1COC(c2ccc3ccccc3c2)O1.O=C(O)C(=O)O (centres undefined)", 5.79],
  ["COc1cccc(OC)c1OCCNCC1CO[C@@](C)(c2ccccc2)O1.O=C(O)C(=O)O (some centres undefined)", 5.74],
  ["COc1cccc(OC)c1OCCNCC1CO[C@H](C(c2ccccc2)c2ccccc2)O1.O=C(O)C(=O)O (some centres undefined)", 5.6],
  ["C[N+](C)(CCOc1ccccc1)CC1COC(c2ccccc2)(c2ccccc2)O1.O=C([O-])C(=O)O (centres undefined)", "< 5"],
  ["O=C(O)C(=O)O.c1ccc(OCCNCC2COC(c3ccccc3)(c3ccccc3)O2)cc1 (centres undefined)", 6.16],
  ["CN(CCOc1ccccc1)CC1COC(c2ccccc2)(c2ccccc2)O1.O=C(O)C(=O)O (centres undefined)", 5.06],
  ["COc1cccc(OC)c1OCCNCC1CO[C@@H](c2ccccc2)O1.O=C(O)C(=O)O (some centres undefined)", 6.31],
  ["COc1cccc(OC)c1OCCNCC1CO[C@](C)(c2ccccc2)O1.O=C(O)C(=O)O (some centres undefined)", 5.8]
]}

Reference source: ChEMBL document CHEMBL1136765
